Cited source: ChEMBL document CHEMBL1143871

Experiment Notes: Apparent permeability from basolateral to apical side of human Caco-2 cell membrane
Format: ADME, cell-based
# cutoff 100 ×10⁻⁶ cm/s applies to Papp B→A; >= gives t, < gives f

[[record]]
compound = "COc1cc2c(cc1OC)CN(CC/C=C1\\CCCc3c(OC)cccc31)CC2"
group = "f"

[[record]]
compound = "COc1cc2c(cc1OC)CN(CCCC1=CCCc3c(OC)cccc31)CC2"
group = "t"

[[record]]
compound = "COc1cc2c(cc1OC)CN(CCCC1CCCc3c(OC)cccc31)CC2 (stereo unspecified)"
group = "t"

[[record]]
compound = "COc1ccc2c(c1)CCCC2CCCN1CCc2cc(OC)c(OC)cc2C1 (stereo unspecified)"
group = "t"

[[record]]
compound = "COc1ccc2c(c1)C(CCCN1CCc3cc(OC)c(OC)cc3C1)CCC2 (stereo unspecified)"
group = "t"


Attention now shifts to the item below.
Q: Would you say `COc1cccc2c1CCC/C2=C\CCN1CCCCC1` shows Papp B→A at minimum 100 ×10⁻⁶ cm/s?
Result: t
